The measurements presented in this section are drawn from PubChem BioAssay (Tox21).

Experiment: qHTS assay for small molecule disruptors of the mitochondrial membrane potential (AID 720635)
Details: HepG2 mitochondrial membrane potential, Mito-MPS dye ratio; series mostly up to 83.2 µM
Results filed as inconclusive are left out. Calls of active or inactive are those of the source. The call rests on the fitted dose curve; in most records, active means well fitted inhibition curve with a large enough effect in the signal ratio in the repeat runs; inconclusive means weak or mixed curves, or effect the other way; inactive means flat fitted curve, though single readings scatter; the % refers to the signal ratio.
The reply should name one outcome from yes (1) for active, no (0) for inactive

>>> group_label("NC[C@@H]1CC[C@@H](N)[C@@H](O[C@H]2[C@H](O)[C@@H](O[C@H]3O[C@H](CO)[C@@H](O)[C@H](N)[C@H]3O)[C@H](N)C[C@@H]2N)O1")
"no (0)"
>>> group_label("CCC[C@@H]1C[C@@H](C(=O)N[C@@H]([C@H]2O[C@H](SC)[C@H](OP(=O)(O)O)[C@@H](O)[C@H]2O)[C@H](C)Cl)N(C)C1")
"no (0)"
>>> group_label("C[C@H](O)CN(C)C")
"no (0)"
>>> group_label("O=C(CCCCCCCCc1cccnc1)N1CCC(C=C(c2ccccc2)c2ccccc2)CC1")
"yes (1)"
>>> group_label("CO/N=C(\\C(=O)N[C@@H]1C(=O)N2C(C(=O)O)=C(COC(C)=O)CS[C@H]12)c1csc(N)n1 (stereo in doubt)")
"no (0)"
>>> group_label("CC1(C)S[C@@H]2[C@H](NC(=O)[C@H](N)c3ccc(O)cc3)C(=O)N2[C@H]1C(=O)O")
"no (0)"

INPUT: State the result this test recorded for O=C1CC[C@@H](C(=O)N[C@H]2C[C@@H]2c2ccccc2)N1 .
OUTPUT: no (0)

INPUT: Here is the next molecule: Oc1ccc(Cl)c2c1CCC2
OUTPUT: yes (1)

INPUT: Here is the next molecule: CC(C)[N+]1(C)[C@@H]2CC[C@H]1CC(OC(=O)C(CO)c1ccccc1)C2 (stereo not given in full)
OUTPUT: no (0)

INPUT: Here is the next molecule: O=[N+]([O-])c1ccc(O)c2ncccc12
OUTPUT: yes (1)

INPUT: Here is the next molecule: CC[C@H]1OC(=O)[C@H](C)C(=O)[C@H](C)[C@@H](O[C@@H]2O[C@H](C)C[C@H](N(C)C)[C@H]2O)[C@](C)(OC)C[C@@H](C)C(=O)[C@H](C)[C@H]2N(CCCCn3cnc(-c4cccnc4)c3)C(=O)O[C@]12C
OUTPUT: no (0)
